These data points were gathered from ChEMBL document CHEMBL1122589.

test system: L1210; experiment: In vitro concentration required to inhibit the growth of L1210 cells in culture by 50% following a 48 hr exposure.; type: functional; settings: Mus musculus, L1210, 48 h; read-out: ID50 (the source's name)
# IC50 per record follows
recorded_endpoint: IC50

INSERT INTO measurements (smiles_text, recorded_endpoint, endpoint_value) VALUES
  ('CS(=O)(=O)Nc1ccc(Nc2c3ccccc3nc3ccccc23)c(N2CCCC2)c1', 'IC50', '1300 nM'),
  ('CS(=O)(=O)Nc1ccc(Nc2c3ccccc3nc3ccccc23)c(N2CCOCC2)c1', 'IC50', '> 1600 nM'),
  ('CS(=O)(=O)Nc1ccc(Nc2c3ccccc3nc3ccccc23)c([N+](=O)[O-])c1', 'IC50', '9000 nM'),
  ('CS(=O)(=O)Nc1ccc(Nc2c3ccccc3nc3ccccc23)c(N2CCCCC2)c1', 'IC50', '> 1600 nM'),
  ('CCOc1cc(NS(C)(=O)=O)ccc1Nc1c2ccccc2nc2ccccc12', 'IC50', '600 nM');

###

system: L1210; test: In vitro concentration required to inhibit the growth of L1210 cells in culture by 50% following a 48 hr exposure.; type: functional; conditions: Mus musculus, L1210, 48 h; read-out: ID50 (the source's name)
IC50 by entry:
recorded_endpoint: IC50

INSERT INTO results (smiles_text, endpoint_value) VALUES
  ('CS(=O)(=O)Nc1ccc(Nc2c3ccccc3nc3ccccc23)c(OCCO)c1', '> 1.7 µM'),
  ('CC(=O)NNc1cc(NS(C)(=O)=O)ccc1Nc1c2ccccc2nc2ccccc12', '> 1.5 µM'),
  ('CC(C)Oc1cc(NS(C)(=O)=O)ccc1N=c1c2ccccc2[nH]c2ccccc12', '> 1.7 µM');

###

test system: Nucleic Acid; experiment: Binding constant for DNA by ethidium bromide displacement; format: nucleic-acid assay
recorded_endpoint: Log K

INSERT INTO measurements (smiles_text, tested_target, endpoint_value) VALUES
  ('CC(=O)NNc1cc(NS(C)(=O)=O)ccc1Nc1c2ccccc2nc2ccccc12', 'Nucleic Acid', 5.89),
  ('CS(=O)(=O)Nc1ccc(Nc2c3ccccc3nc3ccccc23)c(OCCO)c1', 'Nucleic Acid', 5.91),
  ('Cc1cc(NS(C)(=O)=O)ccc1Nc1c2ccccc2nc2ccccc12', 'Nucleic Acid', 5.74),
  ('CS(=O)(=O)Nc1ccc(Nc2c3ccccc3nc3ccccc23)c(N2CCCCC2)c1', 'Nucleic Acid', 5.69),
  ('CCS(=O)(=O)Nc1ccc(Nc2c3ccccc3nc3ccccc23)c(NC)c1', 'Nucleic Acid', 6.62),
  ('CCNc1cc(NS(C)(=O)=O)ccc1Nc1c2ccccc2nc2ccccc12', 'Nucleic Acid', 6.54),
  ('CS(=O)(=O)Nc1ccc(Nc2c3ccccc3nc3ccccc23)c(N)c1', 'Nucleic Acid', 6.28),
  ('CCCCCNc1cc(NS(C)(=O)=O)ccc1Nc1c2ccccc2nc2ccccc12', 'Nucleic Acid', 6.42),
  ('CNc1cc(NS(C)(=O)=O)ccc1Nc1c2ccccc2nc2ccccc12', 'Nucleic Acid', 6.42);
